- System: Fibroblast
- assayDetails: Multiplex assay against human fibroblast
- Type: toxicity, cell-based
- assayConditions: 12 h, 1 µM, compound concentration 1 uM, replicate 1
Classes (Population Membrane Permeable-Phenotype (%)): band A: < 10%; band B: ≥ 10% and < 20%; band C: ≥ 20%

O=C1N/C(=N/c2ccccc2F)S/C1=C\c1ccc(C(=O)O)cc1 = band C
CNc1cc(Oc2cc(C(=O)Nc3cc(N4CCN(C)CC4)cc(C(F)(F)F)c3)ccc2C)ncn1 = band C
COc1cc(N2CCN(C)CC2)ccc1Nc1ncc2c(n1)N(C)c1ccccc1C(=O)N2C = band B
O=C(Nc1ccc(Cl)cc1)Nc1cccc(-c2cccc(N3CCCC3)n2)c1 = band C
CCCS(=O)(=O)Nc1ccc(F)c(C(=O)c2c[nH]c3ncc(Cl)cc23)c1F [PLX-4720] = band A
CCn1cc(-c2ccnc3[nH]c(-c4cccc(CN(C)C)c4)cc23)c(-c2ccc(NC(=O)N(C)C)cc2)n1 [GSK-1070916] = band A
CCc1cccc(CC)c1NC(=O)c1nn(C)c2c1CCc1cnc(Nc3ccc(N4CCN(C)CC4)cc3OC)nc1-2 = band A
S=C(NCCCc1c[nH]cn1)NCCCN(Cc1ccc(Cl)c(Cl)c1)c1ccc(Br)cn1 = band C
CCOc1cc(C(=O)N2CCC(N3CCN(C)CC3)CC2)ccc1Nc1ncc2c(n1)N(C1CCCC1)c1ccccc1C(=O)N2C = band B
O=C(Nc1ccc(-c2ccnc(Nc3ccc(N4CCOCC4)cc3)n2)cc1)[C@@H]1CCCN1 = band C

// return the class label for O=C1NC(=O)C(c2cnc3ccccn23)=C1c1cn2c3c(cc(F)cc13)CN(C(=O)N1CCCCC1)CC2 [LY-2090314]
band C

Same question for CCOc1cc2ncc(C#N)c(Nc3ccc(OCc4ccccn4)c(Cl)c3)c2cc1NC(=O)/C=C/CN(C)C [NERATINIB] please.
band C

Same question for CCc1cccc(CC)c1NC(=O)c1nn(C)c2c1CCc1cnc(Nc3ccc(C(=O)NC4CCN(C)CC4)cc3OC(F)(F)F)nc1-2 please.
band C

Same question for Cc1cn(-c2cc(NC(=O)c3ccc(C)c(Nc4nccc(-c5cccnc5)n4)c3)cc(C(F)(F)F)c2)cn1 [NILOTINIB] please.
band B

* * *

# Population Tubulin-Different-Phenotype (%) annotations
- Tested on: U2OS
- assayDetails: Multiplex assay against U2OS
- Type: toxicity, cell-based
- assayConditions: human, 24 h, 10 µM, compound concentration 10 uM, replicate 2
Write your answer as a measured quantity: the number, then the unit.

Consider the worked cases shown below.
C=C1/C(=C\C=C2/CCC[C@]3(C)[C@@H]([C@H](C)/C=C/[C@H](C)C(C)C)CC[C@@H]23)C[C@@H](O)C[C@@H]1O [DOXERCALCIFEROL] = 13%
Cc1cn(-c2cc(NC(=O)c3ccc(C)c(Nc4nccc(-c5cccnc5)n4)c3)cc(C(F)(F)F)c2)cn1 [NILOTINIB] = 30%
CN1CCC(=C2c3ccccc3CC(=O)c3sccc32)CC1.O=C(O)/C=C/C(=O)O [KETOTIFEN FUMARATE] = 88%
O=C(Nc1ccc(-c2ccnc(Nc3ccc(N4CCOCC4)cc3)n2)cc1)[C@@H]1CCCN1 = 22%
O=C(Nc1cccnn1)N1CCC(=Cc2cccc(Oc3ccc(C(F)(F)F)cn3)c2)CC1 = 14%

Bench note: what Population Tubulin-Different-Phenotype (%) did Cl.Oc1ccc2c3c1O[C@H]1c4[nH]c5c(c4C[C@@]4(O)[C@@H](C2)N(CC2CC2)CC[C@]314)C[C@@]1(O)[C@H]2Cc3ccc(O)c4c3[C@@]1(CCN2CC1CC1)[C@H]5O4 show?
77%

Same question for O=C(Nc1ccc(-n2nc(-c3cccnc3)cc2C(F)(F)F)cn1)c1ccc(-c2ccccc2)c(F)c1 [BI 2049] please.
10%

Same question for COc1cccc2cc(-c3nc([C@H]4CC[C@H](C(=O)O)CC4)n4ncnc(N)c34)[nH]c12 [OSI-027] please.
34%

Same question for O=C(Nc1ccc(Cl)cc1)Nc1cccc(-c2cccc(N3CCCC3)n2)c1 please.
46%

Recorded values, source ChEMBL document CHEMBL4689842.
